target: Human TRPC6 (Homo sapiens); construct: expressed in transfected cells; assay: Evaluation of TRPC6 channel inhibitory activity (1), FLIPR Calcium 5 Assay Kit, OAG stimulation (Compound Nos. 1-1293); type: cell-based; conditions: Human TRPC6 stably-expressing cells, OAG 30 μM, FLIPR Calcium 5 Assay Kit; read-out: Inhibitory activity (pIC50 class) (converted)
Sequence (Q9Y210 whole entry): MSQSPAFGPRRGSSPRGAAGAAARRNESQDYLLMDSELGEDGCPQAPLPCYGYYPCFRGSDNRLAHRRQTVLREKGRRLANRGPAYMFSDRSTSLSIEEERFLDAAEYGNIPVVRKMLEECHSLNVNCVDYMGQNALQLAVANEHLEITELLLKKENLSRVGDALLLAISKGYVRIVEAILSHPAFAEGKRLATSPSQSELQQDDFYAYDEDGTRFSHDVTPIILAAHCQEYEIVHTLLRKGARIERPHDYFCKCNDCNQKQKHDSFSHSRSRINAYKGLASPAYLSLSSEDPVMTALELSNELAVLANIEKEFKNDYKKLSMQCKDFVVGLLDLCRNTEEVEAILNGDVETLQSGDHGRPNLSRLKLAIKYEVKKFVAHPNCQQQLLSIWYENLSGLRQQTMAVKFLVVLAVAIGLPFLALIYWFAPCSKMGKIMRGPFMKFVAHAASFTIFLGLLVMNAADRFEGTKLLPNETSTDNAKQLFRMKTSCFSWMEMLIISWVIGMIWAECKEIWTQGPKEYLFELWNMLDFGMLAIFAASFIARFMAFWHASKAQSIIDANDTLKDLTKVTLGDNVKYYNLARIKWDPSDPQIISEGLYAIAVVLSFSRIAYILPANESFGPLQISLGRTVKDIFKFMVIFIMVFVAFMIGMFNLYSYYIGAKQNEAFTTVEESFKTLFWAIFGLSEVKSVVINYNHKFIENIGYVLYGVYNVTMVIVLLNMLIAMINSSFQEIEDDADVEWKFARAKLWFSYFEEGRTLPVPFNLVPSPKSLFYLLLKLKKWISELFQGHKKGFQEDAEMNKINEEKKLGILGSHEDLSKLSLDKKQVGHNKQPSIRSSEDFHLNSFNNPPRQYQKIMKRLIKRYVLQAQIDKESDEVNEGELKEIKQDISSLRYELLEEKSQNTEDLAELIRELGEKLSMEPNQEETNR
IC50: recorded values

Molecule | IC50
CC(=O)Nc1cc(Oc2cc(C#N)ccc2-c2ccc([C@H](O)CN)cn2)n(C)n1 [compound 548] | > 1 µM
CC(C)Cn1cc(Oc2cc(C#N)ccc2-c2ncc(CCN)cn2)cn1 [compound 907] | < 0.01 µM
CC(C)Cn1cc(Oc2cc(F)ccc2-c2ncc(CCN)cn2)cn1 [compound 982] | 0.01 to 1 µM
CCc1cc(Oc2cc(C#N)ccc2-n2cc(CC(N)C(=O)O)c3ccccc32)n(C)n1 (centres unmarked) [compound 460] | > 1 µM
Cc1nc(Oc2cc(F)ccc2-c2ccc(CCN)cn2)cc(N2CCOCC2)n1 [compound 1001] | < 0.01 µM

Need IC50 of Cn1nc(C2CC2)cc1Oc1cc(C#N)ccc1-c1cc(NCCCO)ccn1 [compound 586] , thanks.
> 1 µM

Would you mind doing Cc1nc(Oc2cc(C#N)ccc2-c2ncc([C@H](O)CN)cn2)cc(N2CCO[C@@H](C)C2)n1 [compound 559] as well?
0.01 to 1 µM

Would you mind doing Cc1cc(Oc2cc(C#N)ccc2-c2ccc(CN3CCOCC3)cn2)cc(N2CCOCC2)n1 [compound 425] as well?
> 1 µM

The origin of these recorded values is patent US20230167073A1.
